biological target: UniProt:P48067; assay: Inhibition of human glycine transporter 1
Exercise: state measured IC50 for each of the compounds provided.
Answers are plain numbers, in nM.

Answered examples (4):
CCCS(=O)(=O)N1CCC(CNC(=O)c2ccccc2C(F)(F)F)(c2ccccn2)CC1 :: 31.3
CCCS(=O)(=O)N1CCC(CNC(=O)c2ccccc2Cl)(c2cc(C)ccn2)CC1 :: 38.3
CCCS(=O)(=O)N1CCC(c2ccccn2)([C@H](C)NC(=O)c2ccccc2OC(F)(F)F)CC1 :: 17.7
CCCS(=O)(=O)N1CCC(CNC(=O)c2ccccc2)(C2CCCCN2C)CC1 (stereo not given) :: 3310

Now consider the entry below.
Ask: For the compound CCCS(=O)(=O)N1CCC(CNC(=O)c2ccccc2)(c2cccc(OC)n2)CC1 , report IC50.
Result: 48.3

---

Target: Sodium- and chloride-dependent taurine transporter (Homo sapiens, UniProt P31641)
Sequence (P31641 whole entry): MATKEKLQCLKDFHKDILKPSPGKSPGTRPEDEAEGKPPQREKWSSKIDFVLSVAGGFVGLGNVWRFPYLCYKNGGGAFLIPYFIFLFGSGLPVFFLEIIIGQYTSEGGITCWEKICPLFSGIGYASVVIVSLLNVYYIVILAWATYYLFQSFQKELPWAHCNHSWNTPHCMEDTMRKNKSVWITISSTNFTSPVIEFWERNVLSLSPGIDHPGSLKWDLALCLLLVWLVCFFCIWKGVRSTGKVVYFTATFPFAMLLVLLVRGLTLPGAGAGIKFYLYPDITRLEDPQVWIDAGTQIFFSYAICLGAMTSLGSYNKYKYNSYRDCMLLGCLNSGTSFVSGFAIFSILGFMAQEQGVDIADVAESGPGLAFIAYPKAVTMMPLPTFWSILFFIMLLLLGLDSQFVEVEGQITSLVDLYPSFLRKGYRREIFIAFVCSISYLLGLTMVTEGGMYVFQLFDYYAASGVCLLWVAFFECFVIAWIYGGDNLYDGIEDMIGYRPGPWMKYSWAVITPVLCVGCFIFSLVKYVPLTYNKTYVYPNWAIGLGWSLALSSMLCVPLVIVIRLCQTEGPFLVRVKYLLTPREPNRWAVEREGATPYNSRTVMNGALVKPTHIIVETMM
Assay: Inhibition of taurine transporter
Type: single protein
READOUT_NAME: IC50

Answered examples (4):
CCCS(=O)(=O)N1CCC(CNC(=O)c2ccccc2)(c2cc(C)ccn2)CC1 :: > 30 µM
CCCS(=O)(=O)N1CCC(CNC(=O)c2ccccc2)(c2cccc(OC)n2)CC1 :: > 30 µM
CCCS(=O)(=O)N1CCC(CNC(=O)c2c(N)cccc2Cl)(c2ccccn2)CC1 :: > 30 µM
CCCS(=O)(=O)N1CCC(CNC(=O)c2ccccc2)(c2ccccn2)CC1 :: > 30 µM

Now consider the entry below.
Ask: For the compound CCCS(=O)(=O)N1CCC(CNC(=O)c2ccc(Cl)cc2Cl)(c2ccccn2)CC1 , report IC50.
Result: > 30 µM

---

biological target: Sodium- and chloride-dependent glycine transporter 1 (Homo sapiens); assay: Inhibition of human glycine transporter 1
Sequence (P48067 whole entry): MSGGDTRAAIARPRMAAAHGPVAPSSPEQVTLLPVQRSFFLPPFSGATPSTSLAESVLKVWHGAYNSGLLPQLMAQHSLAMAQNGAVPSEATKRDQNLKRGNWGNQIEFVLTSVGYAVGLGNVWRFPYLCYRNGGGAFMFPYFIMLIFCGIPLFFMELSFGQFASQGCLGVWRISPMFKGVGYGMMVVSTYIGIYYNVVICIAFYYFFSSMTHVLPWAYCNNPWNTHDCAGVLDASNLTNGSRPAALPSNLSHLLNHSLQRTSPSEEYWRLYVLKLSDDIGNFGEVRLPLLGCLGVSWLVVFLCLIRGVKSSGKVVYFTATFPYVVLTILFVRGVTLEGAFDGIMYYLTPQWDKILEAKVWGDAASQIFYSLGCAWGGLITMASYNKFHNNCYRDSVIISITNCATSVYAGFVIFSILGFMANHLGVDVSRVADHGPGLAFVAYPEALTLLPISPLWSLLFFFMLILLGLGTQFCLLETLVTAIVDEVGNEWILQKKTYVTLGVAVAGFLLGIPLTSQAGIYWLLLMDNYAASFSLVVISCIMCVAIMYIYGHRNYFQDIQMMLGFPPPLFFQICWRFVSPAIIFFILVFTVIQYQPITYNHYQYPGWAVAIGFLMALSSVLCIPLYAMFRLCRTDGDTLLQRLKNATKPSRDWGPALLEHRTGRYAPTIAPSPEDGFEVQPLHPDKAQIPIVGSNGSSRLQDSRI
READOUT_NAME: IC50 (nM)
Give bare numbers, in nM.

Answered examples (3):
CCCS(=O)(=O)N1CCC(CNC(=O)c2c(Cl)cccc2Cl)(c2ccccn2)CC1 :: 6.6
CCCS(=O)(=O)N1CCC(CNC(=O)c2ccccc2)(c2cccc(C)n2)CC1 :: 54.7
CCCS(=O)(=O)N1CCC(CNC(=O)c2cc(F)cc(F)c2Cl)(C2CCCCN2C)CC1 (stereo not given) :: 43.1

// input: 2 compounds below; output: IC50 for each
1. CCCS(=O)(=O)N1CCC(CNC(=O)c2c(F)ccc(F)c2Cl)(c2ccccn2)CC1
2. CCCS(=O)(=O)N1CCC(CNC(=O)c2ccc(Cl)cc2Cl)(c2cccc(N3CCOCC3)n2)CC1

Result:
1: 5.7; 2: 412
